System: Nucleic Acid
measurement.description: Binding affinity to poly(dA).poly(dT) duplex DNA assessed as change in thermal melting temperature at compound to DNA ratio of 0.1 by UV-vis spectroscopy
Type: nucleic-acid assay
Decision: ΔTm beneath 6 °C gives y; ΔTm meeting or exceeding 6 °C gives n.

- smiles.string: "CN(C)CCNC(=O)c1cc2c3ccccc3[nH]c2c2ncccc12"
  answer.label: "y"
- smiles.string: "CN(C)CCNC(=O)c1cc2c3cc(Cl)ccc3[nH]c2c2ccncc12"
  answer.label: "n"
- smiles.string: "CN(C)CCCNC(=O)c1cc2c3cc(Cl)ccc3[nH]c2c2ccncc12"
  answer.label: "n"
- smiles.string: "CN(C)CCNC(=O)c1cc2c3cccc(Cl)c3[nH]c2c2ncccc12"
  answer.label: "y"
- smiles.string: "O=C(NCCCN1CCOCC1)c1cc2c3cccc(Cl)c3[nH]c2c2ncccc12"
  answer.label: "y"
- smiles.string: "CN(C)CCCNC(=O)c1cc2c3cccc(Cl)c3[nH]c2c2ncccc12"
  answer.label: "n"
- smiles.string: "CN(C)CCCNC(=O)c1cc2c3ccccc3[nH]c2c2ncccc12"
  answer.label: "y"

###

Here, each record is paired with measured ΔTm data.
Test system: Nucleic Acid
measurement.description: Binding affinity to poly(dA).poly(dT) duplex DNA assessed as change in thermal melting temperature at compound to DNA ratio of 0.1 by UV-vis spectroscopy
Type: nucleic-acid assay
reported.property: ΔTm (°C)

- smiles.string: "CN(C)CCNC(=O)c1cc2c3cc(Cl)ccc3[nH]c2c2ncccc12"
  test.value: 6.1
- smiles.string: "CN(C)CCCNC(=O)c1cc2c3ccccc3[nH]c2c2sccc12"
  test.value: 5.9
- smiles.string: "CN(C)CCCNC(=O)c1cc2c3cc(Cl)ccc3[nH]c2c2ncccc12"
  test.value: 6.1
